measured_target: human cathepsin K (Homo sapiens, UniProt P43235)
Construct: The proform of cathepsin K was converted to mature cathepsin K by brief exposure to pH 4; made in house; host or cells: baculovirus; Trichoplusia ni High Five cells (virus raised in Sf-9)
Sequence (P43235 115-329): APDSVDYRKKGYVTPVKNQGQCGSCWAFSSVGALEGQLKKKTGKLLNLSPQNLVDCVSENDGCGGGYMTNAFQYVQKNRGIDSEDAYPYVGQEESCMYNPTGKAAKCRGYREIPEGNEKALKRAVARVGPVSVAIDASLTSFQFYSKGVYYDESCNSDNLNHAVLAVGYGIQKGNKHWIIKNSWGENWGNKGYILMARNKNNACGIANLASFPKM
test_summary: Cathepsin K inhibition assay, fluorogenic substrate Cbz-Phe-Arg-AMC, progress curve method
Assay type: biochemical
assay_context: Table 2; human recombinant enzyme, pH 5.5, 30° C., 10 μM substrate; read-out: hCat K Ki
pKi: −log10 of the molar value.
assay_endpoint: pKi

* CCCC[C@H](NC(=O)O[C@H](Cn1cnc(-c2ccc(C(F)(F)F)cc2)c1)C(C)(C)C)C(=O)C(=O)Nc1ccn[nH]1 [Example 7] | 9.00 to 11.00
* CCCC[C@H](NC(=O)O[C@H](Cc1nnc(-c2ccc(F)cc2)o1)C(C)(C)C)C(=O)C(=O)Nc1ccnn1C (stereo in doubt) [Example 22] | 7.00 to 9.00
* CCCC[C@H](NC(=O)O[C@H](c1nnc(-c2ccc(C(F)(F)F)cc2)o1)C(C)(C)C)C(=O)C(=O)NN1CCOC1=O [Example 39] | 9.00 to 11.00

Next molecule, pKi to be filled in.
Notebook: CCCC[C@H](NC(=O)O[C@H](Cn1ccc(-c2ccc(C(F)(F)F)cc2)n1)C(C)(C)C)C(=O)C(=O)Nc1ccn[nH]1 [Example 1] , pKi read as 9.00 to 11.00

====

measured_target: human cathepsin K (Homo sapiens)
Construct: The proform of cathepsin K was converted to mature cathepsin K by brief exposure to pH 4; made in house; host or cells: baculovirus; Trichoplusia ni High Five cells (virus raised in Sf-9)
test_summary: Cathepsin K inhibition assay, fluorogenic substrate Cbz-Phe-Arg-AMC, progress curve method
Assay type: biochemical
assay_context: Table 1; human recombinant enzyme, pH 5.5, 30° C., 10 μM substrate; read-out: hCat K Ki
assay_endpoint: Ki

* CCCC[C@H](NC(=O)O[C@H](Cn1ccc(-c2ccc(C(F)(F)F)cc2)n1)C(C)(C)C)C(=O)C(=O)Nc1nccs1 [Example 46] | 0.01 to 1 nM
* CCCC[C@H](NC(=O)O[C@H](Cc1nnc(-c2ccccc2)o1)C(C)(C)CC)C(=O)C(=O)N[C@H](C)c1ccccc1 [Example 8] | 1 to 100 nM
* CCCC[C@H](NC(=O)O[C@@H](c1nnc(-c2ccncc2)o1)C(C)(C)C)C(=O)C(=O)Nc1ccn[nH]1 [Example 55] | 100 to 10000 nM

Next compound, Ki to be filled in.
Notebook: CCCC[C@H](NC(=O)O[C@@H](c1nnc(-c2ccc(C(F)(F)F)cc2)o1)C(C)(C)C)C(=O)C(=O)Nc1ccn[nH]1 [Example 40] , Ki read as 100 to 10000 nM
